Each recorded value in this set is attributed to ChEMBL document CHEMBL1147166.

pKi: −log10 of the molar value.
Muscarinic acetylcholine receptor M1 (Homo sapiens, UniProt P11229): recorded pKi for assorted molecules
Sequence (P11229 whole entry): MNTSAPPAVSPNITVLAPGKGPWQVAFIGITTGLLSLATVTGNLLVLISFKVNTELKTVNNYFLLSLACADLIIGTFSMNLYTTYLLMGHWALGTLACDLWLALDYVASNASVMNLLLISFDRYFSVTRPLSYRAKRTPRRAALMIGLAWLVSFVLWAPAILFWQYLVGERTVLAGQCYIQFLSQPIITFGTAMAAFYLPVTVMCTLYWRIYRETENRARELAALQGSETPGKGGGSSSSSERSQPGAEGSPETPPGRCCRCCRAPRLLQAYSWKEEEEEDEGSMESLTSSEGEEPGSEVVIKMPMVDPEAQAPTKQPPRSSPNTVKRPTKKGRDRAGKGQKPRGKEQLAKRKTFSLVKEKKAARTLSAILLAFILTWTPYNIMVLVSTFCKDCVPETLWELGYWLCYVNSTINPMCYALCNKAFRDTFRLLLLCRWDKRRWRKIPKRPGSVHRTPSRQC

[
  {
    "STRUCTURE_AS_SMILES": "COc1ccccc1CNCCCCCCN1CCC(CCC2CCN(CCCCCCNCc3ccccc3OC)CC2)CC1",
    "TARGET_UNDER_TEST": "Muscarinic acetylcholine receptor M1 (Homo sapiens, UniProt P11229)",
    "pKi": 7.70
  },
  {
    "STRUCTURE_AS_SMILES": "COc1ccccc1CNCCCCCCNCCCCCCCCNCCCCCCNCc1ccccc1OC",
    "TARGET_UNDER_TEST": "Muscarinic acetylcholine receptor M1 (Homo sapiens, UniProt P11229)",
    "pKi": 7.08
  }
]

----------
The entries below come with measured pKi values attached.
- TARGET_UNDER_TEST: Muscarinic acetylcholine receptor M4 (Homo sapiens, UniProt P08173)
- Sequence (P08173 whole entry): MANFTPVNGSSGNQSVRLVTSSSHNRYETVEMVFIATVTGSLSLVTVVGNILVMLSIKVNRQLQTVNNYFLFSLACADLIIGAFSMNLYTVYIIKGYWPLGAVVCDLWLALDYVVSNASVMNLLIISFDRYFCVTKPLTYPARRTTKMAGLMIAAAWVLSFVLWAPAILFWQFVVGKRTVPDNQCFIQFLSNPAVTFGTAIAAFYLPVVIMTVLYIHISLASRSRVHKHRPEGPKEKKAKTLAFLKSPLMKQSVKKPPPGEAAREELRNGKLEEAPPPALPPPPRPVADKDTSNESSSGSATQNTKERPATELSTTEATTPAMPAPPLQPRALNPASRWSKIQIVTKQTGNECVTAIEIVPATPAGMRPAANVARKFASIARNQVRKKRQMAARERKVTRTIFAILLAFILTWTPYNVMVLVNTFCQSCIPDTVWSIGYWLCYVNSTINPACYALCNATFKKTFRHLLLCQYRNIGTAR
pKi: −log10 of the molar value.

[
  {
    "COMPOUND": "COc1ccccc1CNCCCCCCNCCCCCCCCNCCCCCCNCc1ccccc1OC [METHOCTRAMINE]",
    "pKi": 6.97
  },
  {
    "COMPOUND": "COc1ccccc1CNCCCCCCN1CCC(CCC2CCN(CCCCCCNCc3ccccc3OC)CC2)CC1",
    "pKi": 7.39
  }
]

----------
- TARGET_UNDER_TEST: UniProt:P08173
- Sequence (whole entry): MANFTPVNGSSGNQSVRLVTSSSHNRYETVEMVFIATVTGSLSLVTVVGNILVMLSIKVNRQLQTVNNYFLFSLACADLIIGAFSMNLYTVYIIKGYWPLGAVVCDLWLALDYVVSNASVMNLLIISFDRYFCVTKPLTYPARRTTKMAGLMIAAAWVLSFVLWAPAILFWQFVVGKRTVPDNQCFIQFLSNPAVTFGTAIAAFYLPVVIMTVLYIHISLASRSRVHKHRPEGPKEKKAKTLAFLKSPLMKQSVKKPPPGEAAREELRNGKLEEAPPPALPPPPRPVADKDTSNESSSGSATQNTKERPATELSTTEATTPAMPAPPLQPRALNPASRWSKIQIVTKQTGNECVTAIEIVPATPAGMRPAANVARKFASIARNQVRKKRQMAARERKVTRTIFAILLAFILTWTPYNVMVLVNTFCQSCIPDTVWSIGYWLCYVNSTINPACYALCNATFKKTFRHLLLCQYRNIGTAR
- TEST_NAME: Antagonist potency at muscarinic receptor M4 in rabbit vas deferens
- Type: functional, tissue-based
- TEST_SETTINGS: Oryctolagus cuniculus, target entry is the homologue from another species

[
  {
    "STRUCTURE_AS_SMILES": "COc1ccccc1CNCCCCCCN1CCC(CC2CCN(CCCCCCNCc3ccccc3OC)CC2)CC1",
    "INEQUALITY_OPERATOR": "=",
    "pKb": 5.39
  },
  {
    "STRUCTURE_AS_SMILES": "COc1ccccc1CNCCCCCCN1CCC(C2CCN(CCCCCCNCc3ccccc3OC)CC2)CC1",
    "INEQUALITY_OPERATOR": "=",
    "pKb": 6.13
  },
  {
    "STRUCTURE_AS_SMILES": "COc1ccccc1CNCCCCCCNc1ccc(-c2ccc(NCCCCCCNCc3ccccc3OC)cc2)cc1",
    "INEQUALITY_OPERATOR": "<",
    "pKb": 5
  }
]
